Test system: CCRF-CEM leukemia
Assay: NCI tumour cell line growth inhibition, 48 h; in the data active = GI50 below about 0.43 µM; inactive = the rest
Choose the fitting class; nothing outside true = active, false = inactive is accepted.

Name the outcome recorded for `O=C(O)c1cccc(COc2ccc([N+](=O)[O-])cc2Cl)c1` in the assay. false

Name the outcome recorded for `Cc1cc(N/N=C/c2ccccn2)nc2ccccc12` in the assay. true

Name the outcome recorded for `CC(C)[C@H](O)C(=O)N[C@@H](C)C(=O)N[C@@H]1C(=O)N(C)CCc2ccccc21` in the assay. false

Name the outcome recorded for `O=C(Nc1cc(Cl)ccc1O)c1ccc(Nc2ccnc(C(F)(F)F)c2)cc1` in the assay. false

Name the outcome recorded for `O=C1Nc2ccccc2/C1=C1\CCc2cc(O)ccc21` in the assay. false

Name the outcome recorded for `Nc1cc2c(cc1Br)[nH]c(=O)c1ccccc12` in the assay. false

Name the outcome recorded for `NNCCc1ccc(NC(=O)CCCc2ccc(C(=O)Nc3ccccc3N)cc2)cc1` in the assay. false

Name the outcome recorded for `Cc1cn(-c2cc(C(=O)Nc3cccc(-n4ccc5c(NC(=O)c6ccccc6)nccc54)c3)cc(C(F)(F)F)c2)cn1` in the assay. true

Name the outcome recorded for `CC(C)c1[nH]nc2c1N=C(c1ccccc1Cl)c1cc([N+](=O)[O-])ccc1N2` in the assay. false

Name the outcome recorded for `O=C(NCc1ccc(Cn2c(=O)sn(-c3ccccc3)c2=O)cc1)OCc1ccc2cccc(O)c2n1` in the assay. true

---

Can you tell me TGI for the items I'm about to list?
System: MOLT-4 leukemia
Assay: NCI tumour cell line growth inhibition, 48 h
I only need the number, in µM, no unit after it.

TGI recorded for this compound, `CCOC(=O)C1(C(=O)OCC)COS(=O)OC1` , is 56.4

TGI recorded for this compound, CC1CN=C(N(C(=O)Nc2ccc(F)c(Cl)c2)c2ccccc2)S1 (stereo not given) , is 62.2

TGI recorded for this compound, `C=CC(=O)N1CN(C(=O)C=C)CN(C(=O)C=C)C1` , is 8.05

TGI recorded for this compound, `Cc1cn(-c2cc(C(=O)Nc3cccc(-n4ccc5c(NC(=O)c6ccccc6)nccc54)c3)cc(C(F)(F)F)c2)cn1` , is 10.6

---

Can you tell me TGI for the items I'm about to list?
Tested on: U251 CNS
Experiment: NCI tumour cell line growth inhibition, 48 h

TGI recorded for this compound, CC(=O)OCC1OC(n2cc(I)c(=O)[nH]c2=O)C(OC(C)=O)C(OC(C)=O)C1OC(C)=O (stereo not given) , is > 100 µM

TGI recorded for this compound, `S=c1[nH]c2ccc(Br)cc2c(=S)s1` , is 54.8 µM

TGI recorded for this compound, O=C1NCCS(=O)(=O)N[C@@H](CC2=CC=CCC2)C(=O)N2CCCC12 (stereo not given in full) , is > 100 µM

TGI recorded for this compound, `CCC1=CC2CN3Cn4c(c(COCc5c6n(c7ccccc57)CN5CC7C=C(CC)C5C6(C(=O)OC)C7)c5ccccc54)C(C(=O)OC)(C2)C13` , is > 100 µM

TGI recorded for this compound, `Cc1ccc(CC[P+](=O)CCc2ccc(C)nc2)cn1` , is > 100 µM

TGI recorded for this compound, O=c1ccn(C2OC(CO)C(P(=O)(O)O)C2O)c(=O)[nH]1 (stereo not given) , is > 100 µM

TGI recorded for this compound, `Cc1ccc([N+](=O)[O-])cc1N=NC(=O)NNc1cc([N+](=O)[O-])ccc1C` , is 97.6 µM

TGI recorded for this compound, `Cn1c(=O)c2c(nc(C(=N)SCC(=O)O)n2C)n(C)c1=O` , is > 100 µM

TGI recorded for this compound, CCOC(=O)NC(=O)c1cn(C(CC)COC(=O)NCCCCCCNC(=O)OCC(CC)n2cc(C(=O)NC(=O)OCC)c(=O)[nH]c2=O)c(=O)[nH]c1=O (stereo not given) , is > 100 µM

TGI recorded for this compound, CC(C)CC(C/C=C1/CC(CO)(COC(=O)C(C)(C)C)OC1=O)CC(C)C (stereo not given) , is 21.7 µM

TGI recorded for this compound, `CN(C)CCNCCN` , is > 100 µM

TGI recorded for this compound, CC(C)CCC[C@@H](C)C1CCC2[C@@H]3CC=C4C[C@@H](C(=O)NCCN(C)C)CC[C@]4(C)C3CC[C@@]21C (stereo not given in full) , is 77.4 µM

TGI recorded for this compound, `CCN(CC)CCCCCCNc1cccc2cc(Br)cnc12` , is 17.7 µM

TGI recorded for this compound, `NC(=O)C(=O)CC(=O)c1ccccc1NC1=CC(=O)C(=O)c2ccccc21` , is > 100 µM

TGI recorded for this compound, COC(=O)C1C(O)C(C(=O)OC)C(C)N(C)C1C (stereo not given) , is > 100 µM

TGI recorded for this compound, `CCCc1cc(=O)n2c(C(=O)Nc3ccc(Cl)cc3C)c(C(=O)Nc3ccc(F)cc3)sc2n1` , is 4.37 µM

TGI recorded for this compound, CCOC(=O)C(Cl)(Cl)/S(=N\S(=O)(=O)c1ccccc1)NC(=O)c1ccccc1 (stereo not given) , is > 100 µM

TGI recorded for this compound, `COc1nc2ncc([C@@H](OC(C)=O)[C@@H](COC(C)=O)OC(C)=O)nc2c(=O)[nH]1` , is > 100 µM

TGI recorded for this compound, `Cc1ccc(OCCOCCOCCOCCOc2ccc(C)n(O)c2=S)c(=S)n1O` , is > 100 µM

TGI recorded for this compound, `CC(=O)O[C@H]1C(=O)[C@@]2(C)[C@H]([C@H](OC(=O)c3ccc(F)cc3)[C@]3(O)C[C@H](OC(=O)[C@H](O)[C@@H](NC(=O)c4ccccc4)c4ccccc4)C(C)=C1C3(C)C)[C@]1(OC(C)=O)CO[C@@H]1C[C@@H]2O` , is 0.738 µM

TGI recorded for this compound, `O=C(c1ccco1)c1c(C(F)(F)F)n([O-])c2ccc(C(F)(F)F)cc2[n+]1=O` , is 0.536 µM

TGI recorded for this compound, CC1=C(C#N)C(=O)CC(c2ccc(Cl)cc2)N(C)N1 (stereo not given) , is > 100 µM

TGI recorded for this compound, `c1csc(-c2ccc(-c3cccs3)c3nsnc23)c1` , is > 87.5 µM

TGI recorded for this compound, `COC(=O)CCc1cc(OC)c2c(c1)[C@H](C(=O)OC)[C@@H](c1ccc(O)c(OC)c1)O2` , is > 100 µM

TGI recorded for this compound, `CC(C)c1[nH]nc2c1N=C(c1ccccc1Cl)c1cc([N+](=O)[O-])ccc1N2` , is > 25 µM

TGI recorded for this compound, `CC(=O)c1cccn1/C=C(\OC(=O)OC(C)(C)C)c1ccc[nH]1` , is > 100 µM

TGI recorded for this compound, `Cc1cn([C@@H]2C[C@H](CO)[C@@H](O)C2)c(=O)[nH]c1=O` , is > 100 µM

TGI recorded for this compound, `COC(=O)c1c2c(cc3c1CCC3)CCC2` , is > 100 µM

TGI recorded for this compound, Cc1ccc(C)c(N2C/C(=N\NC(=O)CC#N)C(c3nc4ccccc4s3)C(=O)C2=O)c1 (stereo not given) , is > 100 µM

TGI recorded for this compound, CC(=O)Oc1cc(C(F)(F)F)ccc1C(=O)OC1(C)OC(=O)c2ccc(C(F)(F)F)cc2O1 (stereo not given) , is > 100 µM

TGI recorded for this compound, CCC1CN2CCc3cc(OC)c(OC)cc3C2CC1CC1c2cc(OC)c(OC)cc2CCN1C(=O)C1CCCN1 (stereo not given) , is 69.4 µM

TGI recorded for this compound, `CN(C(=O)c1ccc([N+](=O)[O-])cc1)c1ccccc1` , is > 100 µM

TGI recorded for this compound, `CCC1=NC(C(F)(F)F)(C(F)(F)F)N=C(N2CCOCC2)O1` , is > 100 µM

TGI recorded for this compound, `ClCCN(CCCl)c1ccc(CNc2ccccc2)cc1` , is > 100 µM

TGI recorded for this compound, O=C1NCC(NC(=O)C(F)(F)F)c2c(Br)sc(Br)c21 (stereo not given) , is > 100 µM

TGI recorded for this compound, CNc1ncnc2c1cnn2COCC(O)CO (stereo not given) , is > 100 µM

TGI recorded for this compound, `O=C(Nc1ccccc1F)c1cc2ccc(O)cc2oc1=Nc1ccccc1F` , is 3.63 µM

TGI recorded for this compound, `Cc1cn(-c2cc(C(=O)Nc3cccc(-n4ccc5c(NC(=O)c6ccccc6)nccc54)c3)cc(C(F)(F)F)c2)cn1` , is 1.48 µM

TGI recorded for this compound, `C#CCOc1cccc(Nc2ncnc3c(NC(=O)C=C)cccc23)c1` , is > 100 µM

TGI recorded for this compound, `COc1ccc(-c2nn(-c3cccc(Cl)c3)cc2-c2cc(-c3ccccc3)[nH]c(=O)c2C#N)cc1` , is 6.76 µM
